Property: z-score; scope: individual compounds
Experimental Protocol: P. aeruginosa biofilm formation inhibitors, primary screen, PAO1 strain, BacTiter-Glo luminescence, LB-PBS (AID 1144)
Experimental Setup: 12 h, higher = more signal
Lab note: record just the number, no unit beside it.

Lookup: Quick one: z-score of COCCCNC(=O)[C@@H]1c2ccccc2C(=O)N(Cc2cc(C(F)(F)F)cc(C(F)(F)F)c2)[C@H]1c1ccc(CO)cc1 ?
Found: 0.608

Lookup: Same question for C=CCC(OC(C)=O)[C@@H]1[C@@H](N(Cc2cc3ccccc3o2)C(=O)c2ccc(-c3ccccc3)cc2)c2cc(OCCCO)ccc2N1C(=O)c1ccc2ccccc2n1 (some centres not stated) please.
Found: -0.115

Lookup: Same question for COC(=O)[C@@]1(Cc2ccccc2)[C@H]2c3cc(C(=O)N4CCCC4)n(Cc4ccc(C(F)(F)F)nc4)c3C[C@H]2CN1C(=O)c1ccccc1 please.
Found: 0.519

Lookup: Same question for COCCOC(=O)N1C(=O)[C@@]2(c3cc(C#CCCO)ccc31)[C@H](C(=O)N1CCc3cc(OC)c(OC)cc3C1)[C@H]1C(=O)O[C@H](c3ccccc3)[C@H](c3ccccc3)N1[C@@H]2c1ccccc1OCCO please.
Found: -0.652

Lookup: Same question for C=CCC(OC(C)=O)[C@@H]1[C@@H](N(Cc2ccc(-c3cccc(C(F)(F)F)c3)o2)C(=O)c2cccc3ccccc23)c2cc(OCCCO)ccc2N1C(=O)c1ccc2ccccc2c1 (some centres not stated) please.
Found: -0.924

Lookup: Same question for CCCCC(O)C1C=CC2C(=O)NC(=O)C2N1Nc1ccccn1 (configuration not stated) please.
Found: -0.314

Lookup: Same question for COCC(=C=CC[C@@H](O)c1cccc(OCCO)c1)C[C@@H](O)COCc1ccccc1 please.
Found: 0.125

Lookup: Same question for CN1C=C(C(=O)OCCS(C)(=O)=O)C(C(=O)OCCS(C)(=O)=O)=CC(CCCO)=CC1c1ccc(CN2CCCC2)cc1 (configuration not stated) please.
Found: 0.356

###

Experimental Protocol: small-molecule microarray binders of probe aEGFR, primary screen, biochemical, biotinylated probe, 635/667 nm fluorescence (AID 1097);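 note: probe is a biotinylated anti-EGFR antibody binding compounds printed on slides; score combines fluorescence near 667 nm and signal to noise of each spot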
Experimental Setup: higher = more signal
Output met for composite z-score not less than -0.05; output not met otherwise.

1. COCCOC(=O)N1C(=O)[C@@]2(c3cc(C#Cc4ccc(OC)cc4)ccc31)[C@H](C(=O)Nc1nc3ccccc3s1)[C@H]1C(=O)O[C@H](c3ccccc3)[C@H](c3ccccc3)N1[C@@H]2c1ccccc1OCCO ... not met
2. CC1CC/C=C\[C@H]2OC34C=CCN(c5ccc(Cl)cc5)C(=O)[C@H]3N(CCCO)C(=O)[C@]4(C)C2C(=O)O1 (some centres not stated) ... not met
3. COc1ccc(C#Cc2ccc3c(c2)[C@]2(C(=O)N3)[C@H](c3ccc(OCCO)cc3)N3[C@H](c4ccccc4)[C@H](c4ccccc4)OC(=O)[C@H]3[C@@H]2C(=O)O)cc1 ... met
4. CC[C@H](C)C(=O)O[C@H]1CC[C@]2(C)C3=C(CCC2C1(C)C)[C@]1(C)CC[C@H]([C@H](C)CCCC(C)C)[C@@]1(C)CC3 (some centres not stated) ... met
5. O=C1OCCC=C[C@H]2OC34C=CCN(CCN5CCOCC5)C(=O)[C@H]3N(CCCO)C(=O)[C@@H]4C12 (some centres not stated) ... not met

Lookup: Check this molecule for composite z-score at or above -0.05: CCCC=C(CCC)[C@@H](NS(=O)(=O)c1ccc(Cl)cc1)c1ccccc1
Found: not met
